Biological target: hNAMPT protein (Homo sapiens (Human), UniProt P43490)
Sequence (P43490 whole entry): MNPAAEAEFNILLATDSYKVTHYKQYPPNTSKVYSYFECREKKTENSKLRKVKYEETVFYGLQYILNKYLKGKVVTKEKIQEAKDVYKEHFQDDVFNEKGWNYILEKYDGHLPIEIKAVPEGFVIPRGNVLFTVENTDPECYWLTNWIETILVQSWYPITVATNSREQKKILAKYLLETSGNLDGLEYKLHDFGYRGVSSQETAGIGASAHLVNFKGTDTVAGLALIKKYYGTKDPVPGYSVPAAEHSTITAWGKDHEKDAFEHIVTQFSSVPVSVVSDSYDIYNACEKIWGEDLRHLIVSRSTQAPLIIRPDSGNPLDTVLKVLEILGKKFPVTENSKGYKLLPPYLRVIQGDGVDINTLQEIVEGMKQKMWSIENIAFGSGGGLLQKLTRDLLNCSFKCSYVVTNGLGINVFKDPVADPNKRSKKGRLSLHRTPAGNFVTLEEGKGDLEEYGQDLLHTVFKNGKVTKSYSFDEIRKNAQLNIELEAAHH
Experiment: NAMPT enzyme assay (TR-FRET/HTRF, BodiPY ligand, anti 6His-Tb)
Format: binding
Conditions: compound concentration 1 μM; read-out: Percent Inhibition
Text: As discussed above, the invention provides compounds that are useful as inhibitors of the enzyme NAMPT. The NAMPT inhibition of a compound of the invention can be measured using a variety of methods known in the art. […] The TR-FRET signal can be measured using a high throughput microplate reader (e.g., Pherastar). […] The percent inhibition value at a single concentration of compound of the invention can be calculated relative to a control treated sample. […]
Classification field: enter Met for inhibition at 1 µM values not below 40%, Not met for values below it.

[
  {
    "MOLECULE": "O=C(NCCCn1ccnc1)c1ccc2nc(-c3ccccc3)c(N3CCCCC3)nc2c1 [Compound I-166]",
    "QUALITATIVE_LABEL": "Not met"
  },
  {
    "MOLECULE": "COC1CCN(c2nc3ccc(C(=O)NCCCn4ccnc4)cc3nc2-c2ccccc2)C1 (stereo not drawn) [Compound I-226]",
    "QUALITATIVE_LABEL": "Met"
  },
  {
    "MOLECULE": "O=C(NCCCn1ccnc1)c1ccc2nc(-c3ccccc3)c(N3CCn4ccnc4C3)nc2c1 [Compound I-283]",
    "QUALITATIVE_LABEL": "Not met"
  },
  {
    "MOLECULE": "O=C(NCCn1ccnc1)c1ccc2nc(N3CCC(C4CCNCC4)CC3)c(-c3ccccc3)nc2c1 [Compound I-173]",
    "QUALITATIVE_LABEL": "Met"
  },
  {
    "MOLECULE": "O=C(NCCCn1ccnc1)c1ccc2nc(-c3ccccc3)c(-c3cccc(Cl)c3)nc2c1 [Compound I-224]",
    "QUALITATIVE_LABEL": "Met"
  },
  {
    "MOLECULE": "O=C(NCCc1cnc2ccccn12)c1ccc2nc(-c3ccc(F)cc3)c(-c3ccc(F)cc3)nc2c1 [Compound I-302]",
    "QUALITATIVE_LABEL": "Met"
  },
  {
    "MOLECULE": "CS(=O)(=O)C1CCN(c2nc3cc(C(=O)NCCCn4ccnc4)ccc3nc2-c2ccccc2)C1 (stereo not drawn) [Compound I-101]",
    "QUALITATIVE_LABEL": "Not met"
  },
  {
    "MOLECULE": "Cc1cc(C)cc(-c2nc3cc(C(=O)NCCCc4ncc[nH]4)ccc3nc2-c2ccc(F)cc2)c1 [Compound I-335]",
    "QUALITATIVE_LABEL": "Met"
  },
  {
    "MOLECULE": "O=C(NCCCn1ccnc1)c1ccc2nc(N3CCn4ccnc4C3)c(-c3ccccc3)nc2c1 [Compound I-296]",
    "QUALITATIVE_LABEL": "Met"
  },
  {
    "MOLECULE": "O=C(NCCCc1ncc[nH]1)c1ccc2nc(-c3ccc(Cl)cc3)c(-c3ccc(Cl)cc3)nc2c1 [Compound I-315]",
    "QUALITATIVE_LABEL": "Met"
  },
  {
    "MOLECULE": "Cc1nccn1CCNC(=O)c1ccc2nc(-c3ccc(F)cc3)c(-c3ccc(F)cc3)nc2c1 [Compound I-26]",
    "QUALITATIVE_LABEL": "Not met"
  },
  {
    "MOLECULE": "N#CC1CCN(c2nc3cc(C(=O)NCCCn4ccnc4)ccc3nc2-c2ccccc2)C1 (stereo not drawn) [Compound I-17]",
    "QUALITATIVE_LABEL": "Not met"
  },
  {
    "MOLECULE": "O=C(NCCCn1ccnc1)c1ccc2nc(-c3ccccc3)c(-c3cncnc3)nc2c1 [Compound I-41]",
    "QUALITATIVE_LABEL": "Not met"
  },
  {
    "MOLECULE": "O=C(NCCCc1cn[nH]c1)c1ccc2nc(N3CCCCC3)c(-c3ccc(F)cc3)nc2c1 [Compound I-94]",
    "QUALITATIVE_LABEL": "Met"
  },
  {
    "MOLECULE": "O=C(NCCCc1ncc[nH]1)c1ccc2nc(N3CCC(N4CCOCC4)CC3)c(-c3ccccc3)nc2c1 [Compound I-18]",
    "QUALITATIVE_LABEL": "Met"
  },
  {
    "MOLECULE": "CC(C)(C)OC(=O)NCc1ccccc1-c1nc2cc(C(=O)NCCCn3ccnc3)ccc2nc1-c1ccccc1 [Compound I-217]",
    "QUALITATIVE_LABEL": "Not met"
  },
  {
    "MOLECULE": "Cn1cnc2c1CN(C(=O)c1ccc3nc(-c4ccc(F)cc4)c(-c4ccc(F)cc4)nc3c1)CC2 [Compound I-33]",
    "QUALITATIVE_LABEL": "Not met"
  },
  {
    "MOLECULE": "Cc1nc2ccc(C(=O)NCCCn3ccnc3)cc2nc1-c1ccccc1 [Compound I-158]",
    "QUALITATIVE_LABEL": "Met"
  },
  {
    "MOLECULE": "CC(C)(C)OC(=O)NCC1CCN(C2CCN(c3nc4ccc(C(=O)NCCCn5ccnc5)cc4nc3-c3ccccc3)CC2)CC1 [Compound I-27]",
    "QUALITATIVE_LABEL": "Met"
  },
  {
    "MOLECULE": "O=C(NCCCn1ccnc1)c1ccc2nc(-c3ccccc3)c(N3CCCC3)nc2c1 [Compound I-124]",
    "QUALITATIVE_LABEL": "Not met"
  },
  {
    "MOLECULE": "O=C(NCCCc1ncc[nH]1)c1ccc2nc(N3CCC(N4CCOCC4)CC3)c(-c3ccc(Cl)cc3)nc2c1 [Compound I-255]",
    "QUALITATIVE_LABEL": "Met"
  },
  {
    "MOLECULE": "O=C(NCCCn1ccnc1)c1ccc2nc(-c3ccc4nccn4c3)c(-c3ccccc3)nc2c1 [Compound I-258]",
    "QUALITATIVE_LABEL": "Met"
  },
  {
    "MOLECULE": "O=C(NCCCn1ccnc1)c1ccc2nc(C3=CCCC3)c(-c3ccccc3)nc2c1 [Compound I-230]",
    "QUALITATIVE_LABEL": "Met"
  },
  {
    "MOLECULE": "O=C(NCCc1cccnc1)c1ccc2nc(-c3ccccc3)c(-c3ccccc3)nc2c1 [Compound I-93]",
    "QUALITATIVE_LABEL": "Met"
  },
  {
    "MOLECULE": "O=C(NCCc1ccc2[nH]cnc2c1)c1ccc2nc(-c3ccc(F)cc3)c(-c3ccc(F)cc3)nc2c1 [Compound I-43]",
    "QUALITATIVE_LABEL": "Not met"
  },
  {
    "MOLECULE": "O=C(NCCCc1ncc[nH]1)c1ccc2nc(OC3COC3)c(-c3ccc(Cl)cc3)nc2c1 [Compound I-318]",
    "QUALITATIVE_LABEL": "Met"
  },
  {
    "MOLECULE": "O=C(NCCCn1ccnc1)c1ccc2nc(N3CCC(n4c(=O)[nH]c5ccccc54)CC3)c(-c3ccccc3)nc2c1 [Compound I-280]",
    "QUALITATIVE_LABEL": "Met"
  },
  {
    "MOLECULE": "O=C(NCCCc1ncc[nH]1)c1ccc2nc(-c3ccc(F)cc3)c(-c3ccc(F)cc3)nc2c1 [Compound I-178]",
    "QUALITATIVE_LABEL": "Met"
  },
  {
    "MOLECULE": "O=C(NCc1ccc2cn[nH]c2c1)c1ccc2nc(N3CCCCC3)c(-c3ccc(F)cc3)nc2c1 [Compound I-133]",
    "QUALITATIVE_LABEL": "Met"
  },
  {
    "MOLECULE": "O=C(NCCCn1ccnc1)c1ccc2nc(N3CCC4(CC3)COC4)c(-c3ccccc3)nc2c1 [Compound I-30]",
    "QUALITATIVE_LABEL": "Met"
  }
]
